target: DNA polymerase alpha catalytic subunit (Homo sapiens, UniProt P09884); experiment: Inhibition of DNA polymerase alpha (unknown origin)
Sequence (P09884 whole entry): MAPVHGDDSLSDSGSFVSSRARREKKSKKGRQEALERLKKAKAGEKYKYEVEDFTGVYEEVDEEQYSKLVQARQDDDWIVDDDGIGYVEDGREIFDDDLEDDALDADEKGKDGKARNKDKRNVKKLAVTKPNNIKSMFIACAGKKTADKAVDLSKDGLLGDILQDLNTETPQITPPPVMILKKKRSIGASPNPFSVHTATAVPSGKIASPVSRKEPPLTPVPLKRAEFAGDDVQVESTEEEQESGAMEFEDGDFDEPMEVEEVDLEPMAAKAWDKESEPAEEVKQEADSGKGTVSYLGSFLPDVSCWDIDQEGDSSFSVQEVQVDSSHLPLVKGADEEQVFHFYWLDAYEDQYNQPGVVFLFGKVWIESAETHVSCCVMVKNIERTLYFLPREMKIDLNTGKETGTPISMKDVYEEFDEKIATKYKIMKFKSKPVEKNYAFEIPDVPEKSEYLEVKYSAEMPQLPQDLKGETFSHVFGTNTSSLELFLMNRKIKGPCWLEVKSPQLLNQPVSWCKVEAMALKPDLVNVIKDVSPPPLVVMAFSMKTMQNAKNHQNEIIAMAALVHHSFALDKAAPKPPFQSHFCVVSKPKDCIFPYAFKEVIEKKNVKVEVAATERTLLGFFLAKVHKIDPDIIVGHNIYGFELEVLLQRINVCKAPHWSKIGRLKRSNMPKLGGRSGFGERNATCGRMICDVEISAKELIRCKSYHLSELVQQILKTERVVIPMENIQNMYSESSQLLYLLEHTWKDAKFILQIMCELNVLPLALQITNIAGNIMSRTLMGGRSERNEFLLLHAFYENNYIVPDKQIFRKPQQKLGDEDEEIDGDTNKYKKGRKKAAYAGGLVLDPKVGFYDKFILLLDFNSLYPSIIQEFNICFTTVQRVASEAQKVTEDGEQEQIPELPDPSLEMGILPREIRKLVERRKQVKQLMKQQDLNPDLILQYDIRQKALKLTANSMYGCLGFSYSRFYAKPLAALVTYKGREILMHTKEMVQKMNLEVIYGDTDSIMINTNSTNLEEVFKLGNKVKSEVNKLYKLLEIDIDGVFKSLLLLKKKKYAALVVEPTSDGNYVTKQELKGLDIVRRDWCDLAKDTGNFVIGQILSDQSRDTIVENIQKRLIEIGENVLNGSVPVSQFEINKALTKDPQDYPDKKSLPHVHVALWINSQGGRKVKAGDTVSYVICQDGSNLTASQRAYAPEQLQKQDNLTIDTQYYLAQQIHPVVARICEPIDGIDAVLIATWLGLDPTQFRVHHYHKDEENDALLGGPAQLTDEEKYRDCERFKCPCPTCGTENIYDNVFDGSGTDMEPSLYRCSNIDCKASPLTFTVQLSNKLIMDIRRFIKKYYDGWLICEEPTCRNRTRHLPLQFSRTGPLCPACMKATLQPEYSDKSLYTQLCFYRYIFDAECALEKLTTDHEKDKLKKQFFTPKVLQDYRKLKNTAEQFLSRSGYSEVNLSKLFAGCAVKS
Readout: pIC50
Lab note: report pIC50 as minus log10 of the concentration in molar units, number only.

Form field pIC50, entry COc1cc(OC(C)=O)c2c(c1)C1(C=C(OC(C)=O)C(=O)C=C1C)OC2=O (configuration not stated) : 6.17

Form field pIC50, entry COc1cc(O)c2c(c1)C1(C=C(OC(C)=O)C(=O)C=C1C)OC2=O (configuration not stated) : 4.55

---

Could you please report measured IC50 for the items listed next?
system: Influenza A virus; assay: microbe, parasite or virus in culture; conditions: H3N2, MDCK
Description: Antiviral activity against influenza A virus (A/Hanfang/359/95(H3N2)) infected in MDCK cells
Return type: number; implicit unit µM.

Form field IC50, entry COC1=CC(=O)c2ccc(=O)oc2[C@]12[C@H](c1c(OC)cc(OC)c3ccc(=O)oc13)[C@H]1[C@H](c3c(OC)cc(OC)c4ccc(=O)oc34)C=C(C)C[C@]1(C)C[C@@H]2C=C(C)C : 8.62

Form field IC50, entry COC1=CC(=O)c2ccc(=O)oc2[C@@]12[C@H](c1c(OC)cc(OC)c3ccc(=O)oc13)[C@H]1[C@H](c3c(OC)cc(OC)c4ccc(=O)oc34)C=C(C)C[C@]1(C)C[C@@H]2C=C(C)C : 9.86

Form field IC50, entry COC1=CC(=O)c2ccc(=O)oc2[C@@]12[C@H](C=C(C)C)C[C@]1(C)CC(C)=C[C@H](c3c(OC)cc(OC)c4ccc(=O)oc34)[C@H]1[C@@H]2c1c(OC)cc(OC)c2ccc(=O)oc12 : 11.1

---

experiment: Cytotoxicity against MDCK cells; type: toxicity, cell-based, Canis lupus familiaris; settings: dog, MDCK cells; read-out: TC50 (the source's name)
Readout: CC50 (µM)
Return type: number; implicit unit µM.

Form field CC50, entry COC1=CC(=O)c2ccc(=O)oc2[C@]12[C@H](C=C(C)C)C[C@]1(C)CC(C)=C[C@H](c3c(OC)cc(OC)c4ccc(=O)oc34)[C@H]1[C@@H]2c1c(OC)cc(OC)c2ccc(=O)oc12 : 57.7

Form field CC50, entry NC(=O)c1ncn([C@@H]2O[C@H](CO)[C@@H](O)[C@H]2O)n1 : 4770

Form field CC50, entry COC1=CC(=O)c2ccc(=O)oc2[C@@]12[C@H](c1c(OC)cc(OC)c3ccc(=O)oc13)[C@H]1[C@H](c3c(OC)cc(OC)c4ccc(=O)oc34)C=C(C)C[C@]1(C)C[C@@H]2C=C(C)C : 19.2

Source listed as ChEMBL document CHEMBL5230095.
